# assaySystem: UniProt P00519
pIC50: −log10 of the molar value.

>  <entrySmiles>
Cc1ccc(NC(=O)c2ccc3c(c2)CC[C@@H]3N2CCN(C)CC2)cc1C#Cc1cnc2ccc(Cl)nn12

>  <pIC50>
7.67

$$$$

* * *

# assaySystem: Abl (T315I) (Homo sapiens, UniProt P00519, T315I)
# measurementDescription: HTRF kinase enzyme assay
pIC50: −log10 of the molar value.

>  <entrySmiles>
Cc1ccc(NC(=O)c2ccc3c(c2)CC[C@@H]3N2CCN(C)CC2)cc1C#Cc1cnc2ccc(Cl)nn12

>  <pIC50>
7.19

$$$$

* * *

# measurementDescription: Pharmacokinetic studies in rats
# Type: in vivo
# assaySetup: female, SD, rat, serum, po, 5 mg/kg

>  <molecule>
Cc1ccc(NC(=O)c2ccc3c(c2)CC[C@@H]3N2CCN(C)CC2)cc1C#Cc1cnc2ccc(Cl)nn12 [CT-721]

>  <half-life>
8.83 h

$$$$

* * *

# assaySystem: Abl enzyme (Homo sapiens)
measuredProperty: Ki (nM)

>  <entrySmiles>
Cc1ccc(NC(=O)c2ccc3c(c2)CC[C@@H]3N2CCN(C)CC2)cc1C#Cc1cnc2ccc(Cl)nn12

>  <assaySystem>
Abl enzyme (Homo sapiens)

>  <uom>
nM

>  <readoutNumber>
7.3

$$$$

* * *

# assaySystem: UniProtKB P35968
# Sequence (P35968 20-1356): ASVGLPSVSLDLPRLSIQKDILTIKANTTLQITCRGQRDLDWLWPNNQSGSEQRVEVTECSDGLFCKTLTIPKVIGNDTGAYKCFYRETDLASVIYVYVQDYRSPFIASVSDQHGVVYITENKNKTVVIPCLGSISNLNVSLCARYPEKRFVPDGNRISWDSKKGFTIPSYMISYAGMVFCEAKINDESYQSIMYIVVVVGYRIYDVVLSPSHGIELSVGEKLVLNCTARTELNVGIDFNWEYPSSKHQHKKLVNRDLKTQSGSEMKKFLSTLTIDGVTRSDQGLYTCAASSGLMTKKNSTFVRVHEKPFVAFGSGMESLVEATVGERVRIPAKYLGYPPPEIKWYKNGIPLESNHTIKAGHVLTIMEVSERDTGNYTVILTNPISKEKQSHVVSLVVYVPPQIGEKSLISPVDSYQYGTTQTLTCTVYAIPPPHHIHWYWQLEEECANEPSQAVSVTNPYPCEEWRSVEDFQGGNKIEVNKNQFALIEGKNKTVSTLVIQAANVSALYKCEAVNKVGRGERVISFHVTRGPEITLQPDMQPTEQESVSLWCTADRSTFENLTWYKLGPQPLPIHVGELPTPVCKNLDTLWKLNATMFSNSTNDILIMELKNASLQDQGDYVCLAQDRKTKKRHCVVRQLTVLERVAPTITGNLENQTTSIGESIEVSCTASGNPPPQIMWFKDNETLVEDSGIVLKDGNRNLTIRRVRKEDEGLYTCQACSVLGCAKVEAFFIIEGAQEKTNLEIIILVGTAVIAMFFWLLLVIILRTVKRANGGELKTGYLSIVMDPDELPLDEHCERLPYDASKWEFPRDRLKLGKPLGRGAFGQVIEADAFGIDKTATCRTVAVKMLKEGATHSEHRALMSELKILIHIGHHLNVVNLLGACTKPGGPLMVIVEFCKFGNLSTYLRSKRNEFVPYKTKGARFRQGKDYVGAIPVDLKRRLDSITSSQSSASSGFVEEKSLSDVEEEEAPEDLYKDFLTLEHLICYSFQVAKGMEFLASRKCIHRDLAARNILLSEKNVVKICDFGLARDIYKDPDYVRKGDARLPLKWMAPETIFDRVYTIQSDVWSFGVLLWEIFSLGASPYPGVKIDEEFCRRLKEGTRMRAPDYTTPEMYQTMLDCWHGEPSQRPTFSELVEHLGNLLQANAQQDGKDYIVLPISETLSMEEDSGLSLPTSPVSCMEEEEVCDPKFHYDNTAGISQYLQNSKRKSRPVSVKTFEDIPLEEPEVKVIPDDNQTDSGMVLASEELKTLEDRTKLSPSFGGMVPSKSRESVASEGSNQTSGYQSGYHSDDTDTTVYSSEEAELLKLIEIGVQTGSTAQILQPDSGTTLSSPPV
measuredProperty: IC50

>  <entrySmiles>
Cc1ccc(NC(=O)c2ccc3c(c2)CC[C@@H]3N2CCN(C)CC2)cc1C#Cc1cnc2ccc(Cl)nn12

>  <assaySystem>
UniProtKB P35968

>  <result>
0.0489 µM

$$$$

* * *

# measurementDescription: Pharmacokinetic studies in rats
# Format: in vivo
# assaySetup: female, SD, rat, serum, po, 5 mg/kg
measuredProperty: Tmax (h)

>  <molecule>
Cc1ccc(NC(=O)c2ccc3c(c2)CC[C@@H]3N2CCN(C)CC2)cc1C#Cc1cnc2ccc(Cl)nn12 [CT-721]

>  <measuredProperty>
Tmax

>  <readoutNumber>
6.67

$$$$

* * *

# Test system: HL-60
# measurementDescription: Cell proliferation assay
# Type: cell-based
# assaySetup: Homo sapiens, HL-60, 72 h, read-out: Cell growth inhibition IC50
pIC50: −log10 of the molar value.

>  <entrySmiles>
Cc1ccc(NC(=O)c2ccc3c(c2)CC[C@@H]3N2CCN(C)CC2)cc1C#Cc1cnc2ccc(Cl)nn12

>  <pIC50>
5.00 to 6.00

$$$$

* * *

# measurementDescription: Pharmacokinetic studies in rats
# Assay type: in vivo
# assaySetup: female, SD, rat, serum, po, 5 mg/kg
measuredProperty: AUC(0-inf) (ng·h/mL)

>  <entrySmiles>
Cc1ccc(NC(=O)c2ccc3c(c2)CC[C@@H]3N2CCN(C)CC2)cc1C#Cc1cnc2ccc(Cl)nn12

>  <readoutNumber>
5420

$$$$

* * *

# System: MV-4-11
# measurementDescription: Cell proliferation assay
# Format: cell-based
# assaySetup: read-out: Cell growth inhibition IC50; MV-4-11, acute myeloid leukemia, 72 hours
pIC50: −log10 of the molar value.

>  <entrySmiles>
Cc1ccc(NC(=O)c2ccc3c(c2)CC[C@@H]3N2CCN(C)CC2)cc1C#Cc1cnc2ccc(Cl)nn12

>  <pIC50>
6.63

$$$$
